Target: G2019S-LRRK2 (recombinant GST-LRRK2 delta970) (Homo sapiens, UniProt Q5S007, G2019S)
Construct: Recombinant GST-LRRK2 (delta970); GST (N); host or cells: baculovirus-infected Sf9 insect cells
Sequence (Q5S007 970-2527 G2019S limits assumed): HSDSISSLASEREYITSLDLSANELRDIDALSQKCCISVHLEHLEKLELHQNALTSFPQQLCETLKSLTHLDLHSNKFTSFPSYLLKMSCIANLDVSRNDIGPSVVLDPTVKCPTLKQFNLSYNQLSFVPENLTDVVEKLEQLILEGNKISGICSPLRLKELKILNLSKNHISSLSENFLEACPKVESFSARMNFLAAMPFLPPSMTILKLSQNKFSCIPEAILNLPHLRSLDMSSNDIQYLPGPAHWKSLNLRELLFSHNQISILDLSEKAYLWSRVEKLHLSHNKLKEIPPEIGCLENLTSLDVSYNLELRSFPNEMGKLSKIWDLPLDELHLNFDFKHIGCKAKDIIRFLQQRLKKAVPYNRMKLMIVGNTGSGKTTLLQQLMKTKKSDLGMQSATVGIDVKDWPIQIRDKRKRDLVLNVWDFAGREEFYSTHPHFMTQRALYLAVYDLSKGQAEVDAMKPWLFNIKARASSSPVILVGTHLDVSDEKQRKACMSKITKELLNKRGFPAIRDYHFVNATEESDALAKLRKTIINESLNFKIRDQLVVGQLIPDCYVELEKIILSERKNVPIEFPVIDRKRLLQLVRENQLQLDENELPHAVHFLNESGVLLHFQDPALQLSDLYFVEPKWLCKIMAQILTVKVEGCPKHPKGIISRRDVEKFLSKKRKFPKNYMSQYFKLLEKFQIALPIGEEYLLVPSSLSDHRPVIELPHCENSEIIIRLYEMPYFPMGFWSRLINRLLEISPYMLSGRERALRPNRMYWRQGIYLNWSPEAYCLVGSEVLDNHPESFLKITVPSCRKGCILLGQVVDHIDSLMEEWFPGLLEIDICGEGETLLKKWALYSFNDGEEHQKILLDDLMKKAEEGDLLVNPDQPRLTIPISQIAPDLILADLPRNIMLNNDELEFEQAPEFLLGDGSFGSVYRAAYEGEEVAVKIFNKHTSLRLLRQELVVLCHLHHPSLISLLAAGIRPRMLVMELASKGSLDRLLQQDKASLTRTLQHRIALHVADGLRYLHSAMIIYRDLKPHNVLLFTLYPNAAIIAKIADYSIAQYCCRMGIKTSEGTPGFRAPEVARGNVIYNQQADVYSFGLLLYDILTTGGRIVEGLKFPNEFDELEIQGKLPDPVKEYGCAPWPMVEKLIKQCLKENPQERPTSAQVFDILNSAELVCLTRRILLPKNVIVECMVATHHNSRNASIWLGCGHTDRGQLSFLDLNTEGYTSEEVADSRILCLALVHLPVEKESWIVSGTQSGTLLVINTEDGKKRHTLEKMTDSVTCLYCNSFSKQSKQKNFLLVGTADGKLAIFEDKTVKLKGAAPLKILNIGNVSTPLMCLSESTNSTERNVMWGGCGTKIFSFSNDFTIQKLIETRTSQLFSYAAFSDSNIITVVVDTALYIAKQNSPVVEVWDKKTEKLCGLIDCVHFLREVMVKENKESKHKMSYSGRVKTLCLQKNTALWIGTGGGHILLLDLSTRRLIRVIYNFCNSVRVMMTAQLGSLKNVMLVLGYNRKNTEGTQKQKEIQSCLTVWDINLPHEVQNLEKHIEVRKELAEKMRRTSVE
Assay: LRRK2 kinase assay, G2019S mutant (32P radiometric, peptide substrate)
Assay type: biochemical
Conditions: G2019S-LRRK2 30 nM, ATP ~52 μM (Km), 30 min at 30° C.
Output Y for records whose IC50 is lower than 0.06 µM, N for records at or above 0.06 µM.

Some entries whose results are on file:
mol	subject.of.test	label.value
Cc1cc(Nc2nc(N[C@@H](C)C3CC3)c3nc[nH]c3n2)nn1C(C)C	G2019S-LRRK2 (recombinant GST-LRRK2 delta970) (Homo sapiens, UniProt Q5S007, G2019S)	N
CC(C)n1cc(Nc2nc(N[C@@H](C)c3ccccn3)c3cc[nH]c3n2)cn1	G2019S-LRRK2 (recombinant GST-LRRK2 delta970) (Homo sapiens, UniProt Q5S007, G2019S)	N
Cn1cc(Nc2nc(NC3CCC3)c3cc[nH]c3n2)cn1	G2019S-LRRK2 (recombinant GST-LRRK2 delta970) (Homo sapiens, UniProt Q5S007, G2019S)	Y
CC(C)n1cc(Nc2nc(N(C)[C@@H](C)C3CC3)c3cc[nH]c3n2)cn1	G2019S-LRRK2 (recombinant GST-LRRK2 delta970) (Homo sapiens, UniProt Q5S007, G2019S)	Y

Turning to the following molecule.
API: query returns whether the molecule falls strictly under 0.06 µM in IC50. Query: `C[C@H](Nc1nc(Nc2cnn(CCN(C)C)c2)nc2[nH]ccc12)C1CC1` N
